Origin of the recorded values: patent US20230265192A1

Target: T1, human CTLA-4 expressed on the cell surface (human, UniProt P16410 36-223)
T1 construct: CHO cells stably expressing human CTLA-4; also called hCTLA-4; CTLA-4+ CHO cells
T1 sequence (P16410 36-223 limits assumed): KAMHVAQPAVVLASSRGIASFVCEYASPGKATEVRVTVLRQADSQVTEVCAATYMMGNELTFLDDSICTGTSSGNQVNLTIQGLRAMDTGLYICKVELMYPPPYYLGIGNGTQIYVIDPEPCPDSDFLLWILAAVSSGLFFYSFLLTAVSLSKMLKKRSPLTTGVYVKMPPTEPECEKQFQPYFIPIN
Experiment: flow cytometry, 10 µg/mL mAb, geometric MFI
measured-endpoint: MFI of CTLA-4+ CHO cells
In your answer, state the number alone without any accompanying words.

antibody A4 (L4H4) (antibody, V domains shown, also called aCTLA-4.29) VH: QVQLVESGGGVVQPGRSLRISCAASGFTFSSYGIHWVRQAPGKGLQWVAVIWYDGRNKYYADSVKGRFTISRDNSKNTLYLQMNSLRAEDTAVYYCSRSGSFGAFDIWGQGTMVTVSS VL: EIVLTQSPGTLSLSPGDRATLSCRASQSGSSSYLAWYQQKPGQAPRLLIYGASSRATGIPDRFSGSGSGTDFTLTISRLEPEDFAVYYCQQYGTSPFTSGPGTKVDIK :: 999

What value of measured MFI of CTLA-4+ CHO cells is listed for antibody A1 (L1H1) (antibody, V domains shown, also called aCTLA-4.9; CTLA4.A1) VH: QVQLVESGGGVVQPGRSLRLSCAASGFTFSSFGMHWVRQAPGKGLEWVAVIWYDGRNKYYVDSVKGRFTISRDNSNNTLYLQMNSLRAEDTAVYYCARGEFFGEFFDYWGQGTLVTVSS VL: EIVLTQSPGTLSLSPGEGATLSCRASQSFSSNYLAWYQQKPGQAPRLLIYGASSRATGIPDRFSGSGSGTDFTLTISRLEPEDFAVYYCQQYGTSPFTFGPGTKVDIK ?
1330

What value of measured MFI of CTLA-4+ CHO cells is listed for antibody A8 (L8H8) (antibody, V domains shown, also called aCTLA-4.1) VH: QVQLVESGGGVVQPGRSLRLSCAASGFTFSRYGMHWVRQAPGKGLEWVAVIWYDGRNKYYADSVKGRFTISRDNSKNTLYLQMNSLRAEDTALYSCARAGELGPFDYWGQGTLVTVSS VL: EIVLTQSPGTLSLSPGERATLSCRASQSVSYLAWYQQKPGQAPRLLIYGASSRATGIPDRFSGSGSGTDFTLTISRLEPEDFAVYYCQQYGSSPWTFGQGTKVEIK ?
1010
